Data origin: patent US20250136687A1

# targetUnderTest: T1, monkey CD3ε protein (monkey, UniProt Q95LI5 22-117, limits assumed)
# T1 sequence (looked up): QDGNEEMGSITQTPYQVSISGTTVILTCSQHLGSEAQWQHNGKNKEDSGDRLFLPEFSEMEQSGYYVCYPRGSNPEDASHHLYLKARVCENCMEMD
# assayProcedure: ELISA, coated antigen
readoutName: max-OD450 (OD450)
Quick note: give the figure in OD450, leave out the unit.

Below, each entry is followed by its recorded max-OD450 result.
1-22.6-1-H2a-L2a humanized antibody (antibody, human IgG1, kappa, V domains shown, also called 1-22.6-H2a-L2a) VH: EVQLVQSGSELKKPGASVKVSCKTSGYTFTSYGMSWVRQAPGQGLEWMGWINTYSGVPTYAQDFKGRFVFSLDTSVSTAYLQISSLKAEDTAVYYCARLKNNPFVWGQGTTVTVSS VL: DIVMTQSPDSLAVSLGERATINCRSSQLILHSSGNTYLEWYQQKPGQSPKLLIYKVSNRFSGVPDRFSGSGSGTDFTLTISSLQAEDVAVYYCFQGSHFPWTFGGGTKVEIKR
3.09
7-35.6-H2-L3 humanized antibody (antibody, human IgG1, lambda, V domains shown) VH: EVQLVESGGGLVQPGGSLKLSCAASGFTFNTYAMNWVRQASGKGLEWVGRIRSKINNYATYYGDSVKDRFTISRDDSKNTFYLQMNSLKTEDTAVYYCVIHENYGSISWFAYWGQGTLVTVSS VL: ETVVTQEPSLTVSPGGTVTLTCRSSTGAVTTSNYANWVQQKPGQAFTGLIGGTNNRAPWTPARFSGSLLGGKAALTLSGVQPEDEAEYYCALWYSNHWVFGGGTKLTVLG
3.01

Param item = 5-7.13-H1a-L2 humanized antibody (antibody, human IgG1, kappa, V domains shown) VH: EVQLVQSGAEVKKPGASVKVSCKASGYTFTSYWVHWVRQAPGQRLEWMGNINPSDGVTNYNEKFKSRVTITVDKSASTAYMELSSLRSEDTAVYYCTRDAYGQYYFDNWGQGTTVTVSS VL: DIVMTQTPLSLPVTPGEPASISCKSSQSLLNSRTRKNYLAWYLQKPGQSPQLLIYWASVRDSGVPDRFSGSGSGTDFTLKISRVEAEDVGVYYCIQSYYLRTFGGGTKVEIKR ; retrieve measured max-OD450. 2.99

Given 40G5c-hIgG1 (antibody, V domains shown) VH: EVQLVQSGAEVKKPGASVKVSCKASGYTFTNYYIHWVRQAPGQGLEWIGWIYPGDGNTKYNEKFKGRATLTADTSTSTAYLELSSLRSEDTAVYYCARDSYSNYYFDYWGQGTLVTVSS VL: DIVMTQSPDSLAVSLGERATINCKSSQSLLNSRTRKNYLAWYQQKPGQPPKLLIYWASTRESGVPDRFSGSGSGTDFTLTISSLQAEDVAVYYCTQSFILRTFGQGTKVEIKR , state its recorded max-OD450. 2.96

Entry under review: 5-40.21-H3-L1 humanized antibody (antibody, human IgG1, kappa, V domains shown) VH: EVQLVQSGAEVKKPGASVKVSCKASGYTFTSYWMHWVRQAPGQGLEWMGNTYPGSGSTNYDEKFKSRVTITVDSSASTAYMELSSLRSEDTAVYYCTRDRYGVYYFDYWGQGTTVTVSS VL: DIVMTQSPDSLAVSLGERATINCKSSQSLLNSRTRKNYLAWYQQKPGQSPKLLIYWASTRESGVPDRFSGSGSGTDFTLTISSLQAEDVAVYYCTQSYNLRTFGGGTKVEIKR . Reported max-OD450? 2.84

Recorded max-OD450 for 6-44.5-H1-L2 humanized antibody (antibody, human IgG1, kappa, V domains shown) VH: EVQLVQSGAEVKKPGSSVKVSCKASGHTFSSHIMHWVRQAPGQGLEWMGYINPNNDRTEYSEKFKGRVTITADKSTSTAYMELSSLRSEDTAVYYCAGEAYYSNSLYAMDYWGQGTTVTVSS VL: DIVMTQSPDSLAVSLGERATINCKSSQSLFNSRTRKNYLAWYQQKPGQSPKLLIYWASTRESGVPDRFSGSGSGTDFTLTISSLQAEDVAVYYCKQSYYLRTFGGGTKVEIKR , please? 2.84

Entry 8-18.1-H1-L2 humanized antibody (antibody, human IgG1, kappa, V domains shown) VH: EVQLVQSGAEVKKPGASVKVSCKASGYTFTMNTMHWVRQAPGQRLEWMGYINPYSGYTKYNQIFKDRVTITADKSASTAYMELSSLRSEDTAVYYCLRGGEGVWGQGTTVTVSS VL: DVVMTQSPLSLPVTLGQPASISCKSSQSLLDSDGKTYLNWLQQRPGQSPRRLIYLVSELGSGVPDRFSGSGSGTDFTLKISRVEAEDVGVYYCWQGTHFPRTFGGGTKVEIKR has what max-OD450? 3.1
